Reported NPY2R pEC50 values are given for each entry in this list.
Biological target: T1, NPY2R
T1 sequence (P49146 1-381, species assumed, looked up): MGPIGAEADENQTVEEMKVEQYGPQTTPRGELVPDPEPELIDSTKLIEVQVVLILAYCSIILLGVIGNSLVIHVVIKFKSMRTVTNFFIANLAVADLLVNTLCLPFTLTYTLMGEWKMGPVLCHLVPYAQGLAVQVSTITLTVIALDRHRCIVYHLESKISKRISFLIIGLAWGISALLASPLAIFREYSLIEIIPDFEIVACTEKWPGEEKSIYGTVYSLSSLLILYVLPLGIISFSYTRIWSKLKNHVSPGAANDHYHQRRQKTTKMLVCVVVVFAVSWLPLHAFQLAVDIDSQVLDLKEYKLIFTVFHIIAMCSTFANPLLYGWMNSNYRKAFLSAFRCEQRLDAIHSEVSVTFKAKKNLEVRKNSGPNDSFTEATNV
Experiment: cell-based or functional assay
Starred links: 1 amine or outer side, 2 acyl side, 3 side chain; linkers in the order of their positions; H or OH if unused. Non-standard residues stand in square brackets, D forms with d. Groups on a side chain read outwards from the residue. No end group written: not given here. *: point of attachment. dpeg = —[CO(CH2)O(CH2)2O(CH2)NH]— spacer, O=C(COCCOCN[*:1])[*:2]; C20 diacid = O=C(O)CCCCCCCCCCCCCCCCCCC(=O)*; C19 diacid = O=C(O)CCCCCCCCCCCCCCCCCC(=O)*; γGlu = O=C(O)[C@H](CCC(=O)[*:2])N[*:1]; αMeS = C[C@](N)(CO)C(=O)O

Example entries and their recorded answers appear below.
binder: PKPEAPGKDASPEEWNRYY[dK]([γGlu-dpeg-dpeg-γGlu-C20 diacid])DLRHYLNWLTRQRF-NH2 [Compound A65]
reported.measurement: 10.2 -Log(EC50, M)

binder: PKPEAPGK([γGlu-γGlu-C20 diacid])DASPKEWNRYYKDLRHYLNWLTRQRF-NH2 [Compound A73]
reported.measurement: 10.3 -Log(EC50, M)

binder: PKPEAPGK([γGlu-γGlu-C20 diacid])DASPEEW[αMeS]RYYKDLRHYLNWLTRQRF-NH2 [Compound A31]
reported.measurement: 10.4 -Log(EC50, M)

binder: PKPEAPGK([γGlu-γGlu-C20 diacid])DASPEEWDRYYKDLRHYLNWLTRQRF-NH2 [Compound A24]
reported.measurement: 10.5 -Log(EC50, M)

For the binder PKPEAPGK([γGlu-γGlu-C19 diacid])DASPEEWDRYYKDLRHYLNWLTRQRF-NH2 [Compound A33] , give its measured NPY2R pEC50 value.
10.4 -Log(EC50, M)
